ASSAY_TARGET: human IL-1RAcP on cells (human, UniProt Q9NPH3 21-570)
METHOD_DESCRIPTION: cell-based or functional assay
VALUE_TYPE: IC50, IFNγ release, PBMC stimulated with IL-33 (nM)
Lab book: enter the figure in nM, no units written.

R001032 (1A05) (antibody, human IgG1, kappa, V domains shown, Rabbit variable domains of prior art 1A05 on human IgG1 kappa constant regions with AEASS; also called P013.S.01.B.A05) VH: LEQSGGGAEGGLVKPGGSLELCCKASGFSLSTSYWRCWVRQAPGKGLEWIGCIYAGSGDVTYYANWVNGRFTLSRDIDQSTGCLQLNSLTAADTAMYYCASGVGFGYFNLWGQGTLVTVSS VL: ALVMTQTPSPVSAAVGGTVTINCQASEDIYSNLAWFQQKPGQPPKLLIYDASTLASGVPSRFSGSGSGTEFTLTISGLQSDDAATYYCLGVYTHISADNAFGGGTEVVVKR
1.8

We next turn to a different binder, shown below.
(Q) Quick one: IC50, IFNγ release, PBMC stimulated with IL-33 for Y024149_h_IgG1f_AEASS (antibody, V domains shown, Human IgG1f with AEASS effector-silencing residues, kappa light chain) VH: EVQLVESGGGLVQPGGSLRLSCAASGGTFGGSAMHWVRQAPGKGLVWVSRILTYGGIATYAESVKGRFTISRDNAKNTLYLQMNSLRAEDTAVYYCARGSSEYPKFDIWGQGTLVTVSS VL: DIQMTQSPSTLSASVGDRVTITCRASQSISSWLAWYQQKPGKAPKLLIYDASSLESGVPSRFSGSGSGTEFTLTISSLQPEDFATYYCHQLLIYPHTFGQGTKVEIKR ?
(A) 0.2
